TARGET OF ASSAY: HaloTag-ING2 PHD (mouse Ing2 200-280)
TEST NAME: peptide microarray binding signal (635 nm), min-max normalized on array (fraction of array maximum); higher = stronger binding
ASSAY CONDITIONS: peptide region: Unmod H2B variant; binder concentration: 100 nM
Would you mind telling me the reported peptide microarray binding signal of each entry?
No unit in the answer, please; the number alone is enough.

INPUT: I am curious: what peptide microarray binding signal value has been reported for PDPAKSAPAPKKG [Unmod H2B variant P D P A K S A P A P K K G] ?
OUTPUT: 0.00404

INPUT: Given the entry VHPDTGISSKAMG [Unmod H2B variant V H P D T G I S S K A M G] , report its measured peptide microarray binding signal.
OUTPUT: 0.0346

INPUT: What value of peptide microarray binding signal has been reported for the following binder? GISSKAMSIMNSF [Unmod H2B variant G I S S K A M S I M N S F]
OUTPUT: 0.0429

INPUT: Can you look up the measured peptide microarray binding signal of APKKGSKKAVTKA [Unmod H2B variant A P K K G S K K A V T K A] for me?
OUTPUT: 0.00446

INPUT: peptide microarray binding signal lookup needed for PKKGSKKAVTKAQ [Unmod H2B variant P K K G S K K A V T K A Q] , thanks.
OUTPUT: 0.00354

INPUT: May I ask what peptide microarray binding signal has been recorded for ISKKGFKKAVVKT [Unmod H2B variant I S K K G F K K A V V K T] ?
OUTPUT: 0.00602

INPUT: Item under review: PEVSSKGATISKK [Unmod H2B variant P E V S S K G A T I S K K] . Reported peptide microarray binding signal?
OUTPUT: 0.00468

INPUT: // query peptide microarray binding signal value for entry KTQKKEGKKRKRT [Unmod H2B variant K T Q K K E G K K R K R T]
OUTPUT: 0.00857

INPUT: I'd like to know its peptide microarray binding signal. The binder in question is GISSKAMGIMNSF [Unmod H2B variant G I S S K A M G I M N S F]
OUTPUT: 0.0416

INPUT: Look up peptide microarray binding signal: PEPAKSAPAPKKG [Unmod H2B variant P E P A K S A P A P K K G]
OUTPUT: 0.00369

INPUT: Which value of peptide microarray binding signal has been reported for VPKKGSKKAINKA [Unmod H2B variant V P K K G S K K A I N K A] in the records?
OUTPUT: 0.0056

INPUT: Which peptide microarray binding signal reading was recorded for the binder EGKKRKRTRKESY [Unmod H2B variant E G K K R K R T R K E S Y] ?
OUTPUT: 0.00326

INPUT: Quick one: peptide microarray binding signal for KVLKQVHPDTGIS [Unmod H2B variant K V L K Q V H P D T G I S] ?
OUTPUT: 0.0101

INPUT: Reported peptide microarray binding signal, binder EIQTAVRLLLPGE [Unmod H2B variant E I Q T A V R L L L P G E] : ____
OUTPUT: 0.0434

INPUT: Find the recorded peptide microarray binding signal belonging to PEPSKSAPAPKKG [Unmod H2B variant P E P S K S A P A P K K G] and report it.
OUTPUT: 0.0137

INPUT: Field request: peptide microarray binding signal | item: AMSIMNSFVTDIF [Unmod H2B variant A M S I M N S F V T D I F]
OUTPUT: 0.0239

INPUT: Quick check: peptide microarray binding signal of EGTKAVTKYTSAK [Unmod H2B variant E G T K A V T K Y T S A K] ?
OUTPUT: 0.0322
